target: Thyrotropin-releasing hormone receptor (Homo sapiens) (UniProt P34981); experiment: qHTS assay to identify small molecule agonists of the thyrotropin-releasing hormone receptor (TRHR) signaling pathway (AID 1346891); settings: TRHR-HEK293 calcium fluorescence, agonist mode; series mostly up to 57.6 µM;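 further: HEK293 cells expressing TRHR with calcium dye readout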
Sequence (P34981 whole entry, looked up): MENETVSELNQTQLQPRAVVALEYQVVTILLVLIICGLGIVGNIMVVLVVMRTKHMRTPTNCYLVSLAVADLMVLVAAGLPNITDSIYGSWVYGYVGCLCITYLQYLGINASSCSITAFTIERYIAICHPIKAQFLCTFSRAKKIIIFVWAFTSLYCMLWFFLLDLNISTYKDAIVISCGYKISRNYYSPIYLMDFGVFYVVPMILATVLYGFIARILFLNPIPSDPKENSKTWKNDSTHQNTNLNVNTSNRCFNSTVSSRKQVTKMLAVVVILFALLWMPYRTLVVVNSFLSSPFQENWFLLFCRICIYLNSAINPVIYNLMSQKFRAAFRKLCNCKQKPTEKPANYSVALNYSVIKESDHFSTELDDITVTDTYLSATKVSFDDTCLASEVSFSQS
Active and inactive are the calls of the source. The call rests on the fitted dose curve.
Hi there, use one of these labels in your reply, thanks! true (1) = active, false (0) = inactive

Some solved entries appear below for comparison.
CC1(C)C(C=C(Cl)Cl)C1C(=O)OC(C#N)c1ccc(F)c(Oc2ccccc2)c1 (stereo unspecified) | false (0)
ClC1(Cl)C2(Cl)C3(Cl)C4(Cl)C(Cl)(Cl)C5(Cl)C3(Cl)C1(Cl)C5(Cl)C24Cl (stereo unspecified) | false (0)
N#CC(C#N)=NNc1cccc(Cl)c1 | false (0)
BrCC(Br)(Br)Br | false (0)

**Query** Please share the test call associated with `O=c1c2ccccc2c(=O)c2c1cc(Cl)c1[nH]c3c([nH]c12)c(Cl)cc1c(=O)c2ccccc2c(=O)c13` .
**Result** false (0)

----------
assay: qHTS assay to identify small molecule antagonists of the androgen receptor (AR) signaling pathway using the MDA cell line - cell viability counter screen (AID 743041; further: nearly all actives have a fitted effect of over 45% in size); details: MDA-kb2 viability, CellTiter-Fluor, 16 h, cells co-treated with R1881 androgen agonist; series mostly up to 70.3 µM
Results filed as inconclusive are left out. The source made the active and inactive calls. Calls come from the whole dose curve; as a rule, active = well fitted cell-killing curve with a large enough effect in the repeat runs; inconclusive = weak or mixed curves, or effect the other way; inactive = flat fitted curve, though single readings scatter.
Hi there, use one of these labels in your reply, thanks! active, inactive

Some solved entries appear below for comparison.
N#CSCc1ccccc1 | inactive
O=[N+]([O-])c1ccc(Cl)c(Cl)c1Cl | inactive
CNC(=O)CSP(=O)(OC)OC | inactive
CC(C)C(Nc1ccc(C(F)(F)F)cc1Cl)C(=O)OC(C#N)c1cccc(Oc2ccccc2)c1 (stereo not drawn) | inactive
O.O.O.O.O.O.O=S(=O)([O-])[O-].[Ni+2] | inactive

**Query** Please share the test call associated with `CSC1=N[C@@](C)(c2ccccc2)C(=O)N1Nc1ccccc1` .
**Result** active

**Query** Please share the test call associated with `Oc1ccc([C@H]2CNCc3c2ccc(O)c3O)cc1O` .
**Result** inactive

**Query** Please share the test call associated with `ClSC(Cl)(Cl)Cl` .
**Result** inactive

----------
assay: qHTS assay to identify small molecule antagonists of the estrogen receptor alpha (ER-alpha) signaling pathway using the BG1 cell line in the presence of 0.1 nM 17-beta-estradiol - cell viability counter screen (AID 1259241); conditions: VM7Luc4E2 (BG1) viability, CellTiter-Fluor protease, 22 h, 0.1 nM estradiol agonist added; series mostly up to 92.4 µM; further: nearly all actives have a fitted effect of over 40% in size
Results filed as inconclusive are left out. Calls of active or inactive are those of the source. Calls follow the shape of the dose curve; as a rule, active = well fitted cell-killing curve with a large enough effect in the repeat runs; inconclusive = weak or mixed curves, or effect the other way; inactive = flat fitted curve, though single readings scatter.
Hi there, use one of these labels in your reply, thanks! Y for active, N for inactive

CC1=C2C[C@H]3[C@@H](CC=C4C[C@@H](O)CC[C@@]43C)[C@@H]2CC[C@]12O[C@@H]1C[C@H](C)CN[C@H]1[C@H]2C | N

**Query** Please share the test call associated with `CC#C[C@]1(O)CC[C@H]2[C@@H]3C[C@H](C)C4=CC(=O)CC[C@]4(C)[C@H]3CC[C@@]21C` .
**Result** N

**Query** Please share the test call associated with `COC(=O)c1cc(Oc2ccc(Cl)cc2Cl)ccc1[N+](=O)[O-]` .
**Result** N

**Query** Please share the test call associated with CCC(C)Nc1c([N+](=O)[O-])cc(C(C)(C)C)cc1[N+](=O)[O-] (stereo not given) .
**Result** N

**Query** Please share the test call associated with `[F][Sn]([c]1ccccc1)([c]1ccccc1)[c]1ccccc1` .
**Result** Y

**Query** Please share the test call associated with `CC(C)N(C(=O)SC/C(Cl)=C/Cl)C(C)C` .
**Result** N

----------
assay: qHTS assay for identifying genotoxic compounds that show differential cytotoxicity against isogenic chicken DT40 cell lines with known DNA damage response pathways - Rev3 mutant cell line (AID 743014); details: chicken DT40 Rev3-/- viability, CellTiter-Glo, 40 h; series mostly up to 68.4 µM; further: nearly all actives have a fitted effect of over 55% in size; further: potency means the concentration at half of the fitted maximal effect
Inconclusive results are not listed. Calls of active or inactive are those of the source. Calls follow the shape of the dose curve; as a rule, active = well fitted cell-killing curve with a large enough effect in the repeat runs; inconclusive = weak or mixed curves, or effect the other way; inactive = no such curve, though single readings can be large or run the other way.
readout: Potency

CC(Cl)CCl (stereo unspecified) | inactive
CCO/N=C(\CC)C1=C(O)CC(c2c(C)cc(C)cc2C)CC1=O (stereo unspecified) | 51.4 µM (active)
Clc1ccc(C(Cl)(Cl)Cl)cc1Cl | inactive
CCCCN(CCCC)C(=S)[S-].CCCCN(CCCC)C(=S)[S-].[Ni+2] | inactive
Cc1nn(-c2cc(NS(C)(=O)=O)c(Cl)cc2Cl)c(=O)n1C(F)F | inactive

**Query** Entry `CSC(C)(C)/C=N/O` : reported Potency = ?
**Result** inactive

**Query** Entry `Nc1nc(N)nc(Cl)n1` : reported Potency = ?
**Result** inactive

**Query** Entry CCOP(=S)(OCC)SC(CCl)N1C(=O)c2ccccc2C1=O (stereo unspecified) : reported Potency = ?
**Result** 43.3 µM (active)

**Query** Entry CCCC[N+]1(C)CCCC1 (tested in a mixture with another compound) : reported Potency = ?
**Result** inactive

**Query** Entry `COP(=O)(OC)Oc1ccc([N+](=O)[O-])cc1` : reported Potency = ?
**Result** 61.1 µM (active)

**Query** Entry CC(C)=CC1C(C(=O)OC(C#N)c2cccc(Oc3ccccc3)c2)C1(C)C (stereo unspecified) : reported Potency = ?
**Result** inactive

**Query** Entry `[O-][Cl+3]([O-])([O-])O` : reported Potency = ?
**Result** inactive

**Query** Entry CC(Cc1ccc(OCC(=O)O)cc1)NCC(O)c1csc(C(F)(F)F)n1 (stereo unspecified) : reported Potency = ?
**Result** inactive

**Query** Entry `CC(=O)[O-].CC(=O)[O-].[Co+2]` : reported Potency = ?
**Result** inactive

**Query** Entry O=S1(=O)OCC2C(CO1)C1(Cl)C(Cl)=C(Cl)C2(Cl)C1(Cl)Cl (stereo unspecified) : reported Potency = ?
**Result** 10.9 µM (active)

**Query** Entry `c1cc[n+]2c(c1)-c1cccc[n+]1CC2` : reported Potency = ?
**Result** 3.35 µM (active)

----------
test: qHTS assay to identify small molecule antagonists of the thyroid receptor (TR) signaling pathway (AID 743065); details: GH3.TRE-Luc, T3-stimulated luciferase inhibition, 23.5 h; series mostly up to 70.3 µM; further: nearly all actives have a fitted effect of over 55% in size
Inconclusive results are not listed. Active and inactive are the calls of the source. Calls come from the whole dose curve; as a rule, active = well fitted inhibition curve with a large enough effect in the repeat runs; inconclusive = weak or mixed curves; inactive = no such curve, though single readings can be large or run the other way.
Hi there, use one of these labels in your reply, thanks! active, inactive

O=[N+]([O-])c1ccccc1-c1ccccc1 | inactive
CCOP(=O)(OCC)Oc1nc(Cl)c(Cl)cc1Cl | active
CCC[CH2][Sn]([CH2]CCC)([CH2]CCC)[CH2]CCC | active
CN/C(=N\[N+](=O)[O-])NCc1cnc(Cl)s1 | inactive
COC(=O)c1cc(Oc2ccc(Cl)cc2Cl)ccc1[N+](=O)[O-] | active
CN1[C@@H]2CC[C@H]1CC(O)C2 (stereo partly specified) | inactive
CCN(CC)CCN1C(=O)CN=C(c2ccccc2F)c2cc(Cl)ccc21 | active
O=C(Cl)c1ccccc1F | inactive

**Query** Please share the test call associated with CC(C)C(Nc1ccc(C(F)(F)F)cc1Cl)C(=O)OC(C#N)c1cccc(Oc2ccccc2)c1 (stereo unspecified) .
**Result** inactive

**Query** Please share the test call associated with `c1csc(-c2ccc(-c3cccs3)s2)c1` .
**Result** inactive

**Query** Please share the test call associated with CC(Cc1ccc2c(c1)OCO2)NO (stereo unspecified) .
**Result** inactive

**Query** Please share the test call associated with `CCOP(=O)(OCC)Oc1cc(C)nc(C(C)C)n1` .
**Result** inactive

**Query** Please share the test call associated with CCC(OC(C)=O)C(CC(C)NC)(c1ccccc1)c1ccccc1 (stereo unspecified) .
**Result** active

**Query** Please share the test call associated with `Oc1cccc(Cl)c1Cl` .
**Result** inactive

**Query** Please share the test call associated with `[C-]1=CC=CC1.[Cl][Zr+2][Cl].c1cc[cH-]c1` .
**Result** inactive

**Query** Please share the test call associated with `CC(=O)[O][Pb]([c]1ccccc1)([c]1ccccc1)[c]1ccccc1` .
**Result** active

**Query** Please share the test call associated with `CCN1CCC2(CC1)COc1cc3c(cc12)N(C(=O)c1ccc(-c2ccc(-c4nnc(C)o4)cc2C)cc1)CC3` .
**Result** active

----------
experiment: qHTS RealTime-Glo MT Cell Viability Assay in HEK293 cells - 16 hour (AID 1224872); settings: RealTime-Glo luminescence; series mostly up to 76.8 µM; further: nearly all actives have a fitted effect of over 50% in size
Records with an inconclusive call do not appear. Activity calls are given as the source filed them. Calls follow the shape of the dose curve; as a rule, active = well fitted cell-killing curve with a large enough effect in the repeat runs; inconclusive = weak or mixed curves, or effect the other way; inactive = flat fitted curve, though single readings scatter.
Hi there, use one of these labels in your reply, thanks! active, inactive

Some solved entries appear below for comparison.
CNC(=O)CSP(=O)(OC)OC | inactive
Cc1c([N+](=O)[O-])cc2c(c1[N+](=O)[O-])C(C)(C)CC2(C)C | inactive
CCCCCCCc1ccc(O)cc1 | active
CC(C)NCC(O)c1ccccc1Cl (stereo not drawn) | inactive

**Query** Please share the test call associated with CCCCn1cc[n+](C)c1 (tested in a mixture with another compound) .
**Result** inactive

**Query** Please share the test call associated with `c1ccc(N=NNc2ccccc2)cc1` .
**Result** inactive

**Query** Please share the test call associated with `O=S(=O)(O)F` .
**Result** inactive

**Query** Please share the test call associated with `Cc1nn(-c2cc(NS(C)(=O)=O)c(Cl)cc2Cl)c(=O)n1C(F)F` .
**Result** inactive
